System: Concanavalin A (Con A) (Canavalia ensiformis, UniProt P02866) | Read-out: Kd
Respond with a number, then the unit of measure.

Examples with their reported Kd follow.
OC[C@H]1O[C@H](OC[C@H]2O[C@H](OCCCCCCCCS)[C@@H](O)[C@@H](O[C@H]3O[C@H](CO)[C@@H](O)[C@H](O)[C@@H]3O)[C@@H]2O)[C@@H](O)[C@@H](O)[C@@H]1O = 30 nM
OC[C@H]1O[C@H](OCCCCCCCCS)[C@@H](O)[C@@H](O)[C@@H]1O [A, 8-mercaptooctyl α-D-mannopyranoside] = 70 nM
OC[C@H]1O[C@H](O[C@@H]2[C@H](O)[C@@H](OCCCCCCCCS)O[C@H](CO)[C@H]2O)[C@@H](O)[C@@H](O)[C@@H]1O = 75 nM
OC[C@H]1O[C@H](OC[C@H]2O[C@H](OCCCCCCCCS)[C@@H](O)[C@@H](O)[C@@H]2O)[C@@H](O)[C@@H](O)[C@@H]1O = 14 nM

Okay, now this compound:
Tell me Kd of OC[C@H]1O[C@H](OC[C@H]2O[C@H](OCCCCCCCCS)[C@@H](O)[C@@H](O)[C@@H]2O[C@H]2O[C@H](CO)[C@@H](O)[C@H](O)[C@@H]2O)[C@@H](O)[C@@H](O)[C@@H]1O when tested on Concanavalin A (Con A) (Canavalia ensiformis, UniProt P02866). 81 nM
